Reference source for all entries: patent US8563565B2

- ASSAYED_TARGET: human recombinant PDE9 protein (Homo sapiens)
- Construct: His-tag (inferred from the Ni column purification; a myc His-tag vector is named only for the HEK293 expression check)
- Sequence (O76083 whole entry): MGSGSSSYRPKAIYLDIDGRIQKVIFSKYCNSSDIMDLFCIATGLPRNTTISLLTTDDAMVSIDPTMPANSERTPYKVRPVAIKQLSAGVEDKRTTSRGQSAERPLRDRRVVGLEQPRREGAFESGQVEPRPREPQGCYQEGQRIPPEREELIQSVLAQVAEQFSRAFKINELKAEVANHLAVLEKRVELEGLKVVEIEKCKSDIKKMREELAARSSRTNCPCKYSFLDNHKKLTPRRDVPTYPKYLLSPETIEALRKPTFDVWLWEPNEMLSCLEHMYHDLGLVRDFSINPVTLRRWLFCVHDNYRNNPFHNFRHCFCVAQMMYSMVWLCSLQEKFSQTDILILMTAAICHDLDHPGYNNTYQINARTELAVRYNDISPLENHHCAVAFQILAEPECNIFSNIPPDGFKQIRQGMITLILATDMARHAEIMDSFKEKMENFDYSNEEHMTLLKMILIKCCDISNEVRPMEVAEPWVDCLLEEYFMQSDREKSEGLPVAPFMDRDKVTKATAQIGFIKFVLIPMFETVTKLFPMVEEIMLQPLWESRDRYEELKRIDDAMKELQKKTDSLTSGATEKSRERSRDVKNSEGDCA
- TEST: PDE9 inhibitory activity test (measurement of PDE9 inhibitory action, [3H]-cGMP)
- TEST_SETTINGS: PDE9 IC50, human recombinant PDE9, 30° C., 10 min
pIC50: −log10 of the molar value.
pIC50 vs 8: at or above is label 1, below is label 0.

Solved cases below.
COc1ncc(C)c(-c2ccc3c(c2)[nH]c(=O)c2cnn([C@@H]4CCOC4)c23)c1C [25 (+)R] ... label 0
Cc1cc(F)nc(C)c1-c1ccc2c(c1)[nH]c(=O)c1cnn(C3CCOCC3)c12 [Example 8] ... label 0
COc1cc(C)c(-c2ccc3c(c2)[nH]c(=O)c2cnn(C4CCOC4)c23)c(CF)n1 (stereo not drawn) [30 (+)] ... label 0
COc1cc(C)c(-c2ccc3c(c2)[nH]c(=O)c2cnn(C4COCCOC4)c23)c(C)n1 [Example 46] ... label 0
Cc1cc(C2CCOCC2)cc(C)c1-c1ccc2c(c1)[nH]c(=O)c1cnn(C3CCOCC3)c12 [Example 40] ... label 1
COc1nccc(C)c1-c1ccc2c(c1)[nH]c(=O)c1cnn(C3COCCOC3)c12 [Example 47] ... label 1
Cc1cc(C)c(-c2ccc3c(c2)[nH]c(=O)c2cnn(C4CCOCC4)c23)c(C)n1 [Example 2] ... label 0

Then there is this compound:
Is pIC50 at least 8? Consider COc1nc(C)cc(C)c1-c1ccc2c(c1)[nH]c(=O)c1cnn(C3CCCOC3)c12 (single isomer, unassigned; (-)) [34 (−)]
label 1
